These data points were gathered from patent US6866997.

test system: anti-ras optimised zinc finger peptide (F1 position +3 Asn) (synthetic); settings: apparent Kd; phage display, Zn
property name: Kd
Kindly report the value followed by its unit.

Which measured Kd value corresponds to GACGGCGCC (double strand) ? 3 nM

###

test system: anti-ras lead zinc finger peptide (designed) (synthetic); conditions: apparent Kd; phage display
property name: Kd (nM)
Respond with the bare value in nM.

Which measured Kd value corresponds to GACGGCGCC (double strand) ? 17
